// provenance: BindingDB's records for doi:10.1124/jpet.105.083964

target_under_test: Interleukin-1 receptor (Mus musculus)
pKi: −log10 of the molar value.
measured_metric: pKi

1) O/N=C/Nc1ccc(N2CCOCC2)c(Cl)c1
< 5.00

---

target_under_test: Tumor necrosis factor receptor (Homo sapiens)
pKi: −log10 of the molar value.
measured_metric: pKi

1. O/N=C/Nc1ccc(N2CCOCC2)c(Cl)c1
< 5.00

---

target_under_test: D(2) dopamine receptor (Rattus norvegicus, UniProt P61169)
Sequence (P61169 whole entry): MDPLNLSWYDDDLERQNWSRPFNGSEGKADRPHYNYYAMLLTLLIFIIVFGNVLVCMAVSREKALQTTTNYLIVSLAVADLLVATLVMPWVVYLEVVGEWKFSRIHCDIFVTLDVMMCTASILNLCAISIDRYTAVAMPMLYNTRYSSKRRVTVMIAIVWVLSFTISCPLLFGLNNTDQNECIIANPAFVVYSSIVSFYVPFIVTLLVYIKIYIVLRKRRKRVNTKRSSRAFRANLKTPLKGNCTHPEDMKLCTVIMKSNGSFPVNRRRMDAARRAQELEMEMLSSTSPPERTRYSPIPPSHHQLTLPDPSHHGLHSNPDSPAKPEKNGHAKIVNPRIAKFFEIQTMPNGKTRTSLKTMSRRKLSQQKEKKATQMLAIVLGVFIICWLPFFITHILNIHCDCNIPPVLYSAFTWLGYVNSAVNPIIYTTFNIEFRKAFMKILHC
pKi: −log10 of the molar value.
measured_metric: pKi

1. O/N=C/Nc1ccc(N2CCOCC2)c(Cl)c1
< 5.00

---

target_under_test: Dual specificity calcium/calmodulin-dependent 3',5'-cyclic nucleotide phosphodiesterase 1A (Bos taurus)
Sequence (P14100 whole entry): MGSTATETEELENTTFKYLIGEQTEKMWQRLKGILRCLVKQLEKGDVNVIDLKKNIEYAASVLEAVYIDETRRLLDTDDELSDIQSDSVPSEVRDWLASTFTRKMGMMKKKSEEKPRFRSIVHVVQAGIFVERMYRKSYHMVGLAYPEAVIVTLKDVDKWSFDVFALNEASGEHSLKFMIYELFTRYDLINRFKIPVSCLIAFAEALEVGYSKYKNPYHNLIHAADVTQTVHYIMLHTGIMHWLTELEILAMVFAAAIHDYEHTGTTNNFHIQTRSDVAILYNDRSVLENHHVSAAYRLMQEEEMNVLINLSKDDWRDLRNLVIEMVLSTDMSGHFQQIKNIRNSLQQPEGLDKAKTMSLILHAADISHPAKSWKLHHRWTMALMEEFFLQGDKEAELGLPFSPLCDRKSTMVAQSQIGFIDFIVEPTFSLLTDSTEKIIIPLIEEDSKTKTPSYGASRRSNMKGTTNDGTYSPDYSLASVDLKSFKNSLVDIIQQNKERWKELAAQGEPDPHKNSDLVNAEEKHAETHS
measured_metric: Ki

1) O/N=C/Nc1ccc(N2CCOCC2)c(Cl)c1
> 10 µM

---

target_under_test: Type-1 angiotensin II receptor A (Rattus norvegicus)
Sequence (P25095 whole entry): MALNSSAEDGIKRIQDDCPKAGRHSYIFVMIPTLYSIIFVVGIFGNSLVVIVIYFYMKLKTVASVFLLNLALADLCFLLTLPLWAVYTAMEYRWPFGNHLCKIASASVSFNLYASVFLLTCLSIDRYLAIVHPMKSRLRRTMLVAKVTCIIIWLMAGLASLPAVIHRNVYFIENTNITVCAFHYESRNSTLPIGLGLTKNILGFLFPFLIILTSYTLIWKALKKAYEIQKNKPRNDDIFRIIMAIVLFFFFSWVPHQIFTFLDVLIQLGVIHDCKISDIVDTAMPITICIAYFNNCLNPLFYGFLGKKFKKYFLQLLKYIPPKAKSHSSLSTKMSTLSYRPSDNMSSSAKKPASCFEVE
measured_metric: Ki

1. O/N=C/Nc1ccc(N2CCOCC2)c(Cl)c1
> 10 µM

---

Target chain: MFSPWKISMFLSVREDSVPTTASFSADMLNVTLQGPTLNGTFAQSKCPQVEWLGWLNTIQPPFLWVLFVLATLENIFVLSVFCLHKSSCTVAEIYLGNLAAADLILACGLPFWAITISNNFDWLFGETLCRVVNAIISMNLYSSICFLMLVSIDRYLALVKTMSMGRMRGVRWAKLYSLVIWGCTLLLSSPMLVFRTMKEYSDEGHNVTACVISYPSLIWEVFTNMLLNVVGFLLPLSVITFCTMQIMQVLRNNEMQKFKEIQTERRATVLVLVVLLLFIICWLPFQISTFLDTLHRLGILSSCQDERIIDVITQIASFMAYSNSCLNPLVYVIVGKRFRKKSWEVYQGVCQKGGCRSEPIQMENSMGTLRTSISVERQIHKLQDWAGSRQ
pKi: −log10 of the molar value.
measured_metric: pKi

1) O/N=C/Nc1ccc(N2CCOCC2)c(Cl)c1
< 5.00

---

target_under_test: Adenosine receptor A2a (Rattus norvegicus)
Sequence (P30543 whole entry): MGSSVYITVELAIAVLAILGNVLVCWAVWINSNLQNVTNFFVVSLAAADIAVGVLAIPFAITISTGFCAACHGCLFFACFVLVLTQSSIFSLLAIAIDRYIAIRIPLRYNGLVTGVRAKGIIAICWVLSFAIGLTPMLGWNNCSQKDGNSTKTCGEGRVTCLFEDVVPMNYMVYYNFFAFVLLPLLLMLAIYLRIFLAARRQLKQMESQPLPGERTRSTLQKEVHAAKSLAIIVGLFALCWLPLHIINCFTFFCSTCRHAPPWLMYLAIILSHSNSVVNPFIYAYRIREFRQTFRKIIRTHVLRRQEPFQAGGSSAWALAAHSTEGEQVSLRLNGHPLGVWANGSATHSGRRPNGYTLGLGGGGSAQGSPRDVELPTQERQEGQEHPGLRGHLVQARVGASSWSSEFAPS
measured_metric: Ki

1. O/N=C/Nc1ccc(N2CCOCC2)c(Cl)c1
> 10 µM

---

target_under_test: Adenosine receptor A1 (Rattus norvegicus, UniProt P25099)
Sequence (P25099 whole entry): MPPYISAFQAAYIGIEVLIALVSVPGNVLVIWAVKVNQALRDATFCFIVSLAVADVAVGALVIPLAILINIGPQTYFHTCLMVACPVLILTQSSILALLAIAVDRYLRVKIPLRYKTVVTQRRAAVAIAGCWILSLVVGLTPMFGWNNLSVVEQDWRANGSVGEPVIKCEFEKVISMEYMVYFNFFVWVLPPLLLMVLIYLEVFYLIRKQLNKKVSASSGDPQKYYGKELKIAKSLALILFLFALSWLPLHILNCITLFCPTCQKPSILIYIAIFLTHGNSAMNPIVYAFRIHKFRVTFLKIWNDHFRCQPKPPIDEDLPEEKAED
measured_metric: Ki

1) O/N=C/Nc1ccc(N2CCOCC2)c(Cl)c1
> 10 µM
